Test system: OVCAR-8 ovarian
experimental protocol: NCI-60 one-dose screen, 48 h (100 = growth as untreated, 0 = no growth, -100 = all killed)
experimental context: 10 µM unless noted
Compounds without any hit were thinned out: in the full panel of roughly 83,000, 20% have a hit.
measured parameter: growth (%)
Write the answer as a number in %, unit excluded.

For CCCN=C1NC(=O)/C(=C/c2nc(-c3ccc(OC)cc3)n3ccccc23)S1 , what is its reported growth?
86.7

For Cn1c(=O)cc(NC(=O)CN2CCN(c3cc4c(cc3F)c(=O)c(C(=O)O)cn4C3CC3)CC2)[nH]c1=O , what is its reported growth?
98

For COc1cccc(CC(C)=C(c2ccc(OCCN3CCCCC3)cc2)c2ccc(OCCN3CCCCC3)cc2)c1 , what is its reported growth?
-50.3

For Cc1ccc(S(=O)(=O)/C(=C\c2ccc(Cl)cc2)C(=O)c2ccccc2)cc1 , what is its reported growth?
107

For C=C(C)[C@@H]1CC[C@]2(C(=O)N3CCNCC3)CC[C@]3(C)[C@H](CC[C@@H]4[C@@]5(C)C/C(=C/c6ccncc6)C(=O)C(C)(C)[C@@H]5CC[C@]43C)[C@@H]12 , what is its reported growth?
98.2

For COc1ccc(-c2c(N)n[nH]c2-c2cc3c(c(OC)c2OC)OCO3)cc1 , what is its reported growth?
104

For Fc1ccccc1-c1nc(-c2nc3cc(Cl)c(Cl)cc3[nH]2)c2ccccn12 , what is its reported growth?
68.4

For COc1cc2c(cc1OCCCN1CCN(CCCn3c4ccccc4c4ccccc43)CC1)N=C[C@@H]1CCCN1C2=O , what is its reported growth?
-6.46

For NC1=NC(SCc2ccccc2CCl)c2ncn(Cc3ccccc3CCl)c2N1 (centres undefined) , what is its reported growth?
22.8
